Origin of the recorded values: PubChem BioAssay (NCI)

assay: NCI Yeast Anticancer Drug Screen. Data for the cln2 rad14 strain (AID 165); settings: S. cerevisiae cln2 rad14 strain, hits give high values; at 50.0 µM unless noted
The panel holds about 79,000 compounds, 15% with a hit somewhere; the sample as a whole holds those more often.
Decision: growth inhibition compared against -30%; not below it gives satisfied, below it gives not satisfied.

Before answering, review these 3 worked examples.
q: Does the reported growth inhibition for CN(C)c1ccc(/C=C(\C#N)c2ccc(F)cc2)cc1 fall at or above the -30% mark?
a: satisfied

q: Would you mind doing CN1C(=O)N(c2cc(Cl)cc(Cl)c2)C(=N)C1=S as well?
a: satisfied

q: Would you mind doing Cc1cc(Cl)ccc1NC(=O)CC/C(CC(=O)C(C)C)=N\NC(=O)C[n+]1ccccc1 as well?
a: satisfied

New cases:
q: Does the reported growth inhibition for CC1=NCC[N+]1(CCc1ccccc1)Cc1ccccc1 (stereo not drawn) fall at or above the -30% mark?
a: satisfied

q: Would you mind doing N#CCN1CCc2ccccc2C1 as well?
a: not satisfied
